Assay read-out pKd on UniProt P06239; records merged from the literature.
pKd: −log10 of the molar value.
quantity_name: pKd

INSERT INTO assay_data (molecule, result) VALUES
  ('CCN1CCN(Cc2ccc(NC(=O)c3ccc(C)c(C#Cc4cnc5c(Nc6cnn(C)c6)cccn45)c3)cc2C(F)(F)F)CC1', 8.19),
  ('COCCOCCOCCOc1cc(Nc2cc(Oc3ccc(NC(=O)Nc4cc(C(C)(C)C)cc(S(C)(=O)=O)c4OC)c4ccccc34)ccn2)cc(OC)c1', 8.07),
  ('COc1c(NC(=O)Nc2ccc(Oc3ccnc(Nc4ccccc4)c3)c3ccccc23)cc(C(C)(C)C)cc1[S+](C)[O-] (racemic)', 8.44);

A = COCCOCCOCCOc1cc(Nc2ncc3cc(-c4cc(C(=O)Nc5cc(C(C)(C)C)cc(NS(C)(=O)=O)c5OC)ccc4C)ccc3n2)cc(OC)c1
B = COc1ccc(-c2cncc(N[C@@H](C)c3cccc(NC(=O)c4cncc(C)c4)c3)n2)cc1OC
C = COc1cc(Nc2cc(Oc3ccc(NC(=O)Nc4cc(C(C)(C)C)cc(NS(C)(=O)=O)c4OC)c4ccccc34)ccn2)ccc1C(=O)NCCN1CCOCC1
D = COc1cc(Nc2cc(Oc3ccc(NC(=O)Nc4cc(C(C)(C)C)cc(P(C)(C)=O)c4OC)c4ccccc34)ccn2)cc(C(N)=O)c1
# rank by pKd, ascending (min first) Sort and list the labels as requested.
B, A, C, D
(B: 7.66, A: 7.89, C: 8.24, D: 8.92)
